Test: yeast display, Sf9 membrane polyspecificity reagent, FACS + sequencing; frameworks hold sequencing errors
Metric name: polyreactivity (PSR sort gate)

Biosequence	Metric name	Reading
QVQLVESGGGLVQAGGSLRLSCAASGNNFYNNAMGWYRQAPGKERELVATISRRGGRTYYADSVKGRFTISRDNAKNTVYLQMNSLKPEDTSVYYCNARFHGDYDYWGQGTQVTVSS	polyreactivity (PSR sort gate)	high polyreactivity
QDQLVESGGGLVQSGGSLRLSCAASGSILWSYAMGWYIQAPGKERELVAANTSGGSTYYADSVKGRFTISRDNAKNTVYLQMNSLKPEDTAVYFCAADRWRDFWFNEEYWGQGTQVTVSS	polyreactivity (PSR sort gate)	high polyreactivity

----------
Test: yeast display, Sf9 membrane polyspecificity reagent, FACS + sequencing; frameworks hold sequencing errors
Metric name: polyreactivity (PSR sort gate)

A selection of reference data follows.
Biosequence	polyreactivity (PSR sort gate)
QVQLVESGGGLVPARGSLRLSCAASGRTFGPYAMGWYRQAPGKERELVAAITDTGSGTYYADSVKGRFTISRDNSKNTVYLQMNSLKPVDTAVYYCNAVRKYWGQGTQVTVSS	low polyreactivity
QVQLVESGGGLVQAGGSLRFSCAASGRTLVYNGMGWYRPAPGKERELVAAITTDGGDTYYADSVKGRFTISRDNAKNTVYLQMDSLKPEDTAVYYCAADYVALYYWYDYWGQGTQVTVSS	low polyreactivity
QVQLVESGVGLVQAGGSLRLSCAASGSIFWQNTMGGYRPAPGKERELVATITSAGSTYYADSVKGRFTISRDNAKNTVSLQMNSLKPEDTAVYYGAKGHHPGHVFHPDYGYDYWGQGTQVTVSS	low polyreactivity
QVQQQESGGGMEQARGSLRLSCAASGYISWADYMGCYRQAPGKERELVAVIGYGSTTYYADSVKGRFTMSRDNAKNTAYLQMNSLKPEDTAVYYCAVGWYRDTAYKYWGQGTQVTVSS	low polyreactivity
QVQLVETGGGLVQAGGSLRLSCAASGSIFTYYAMGWYRQAPGKEREFVAGISWSGGRTYYADSVKGRFTISRDNAKNTVYLQMNSLKPEDTAVYYCAAEIHDRFDSWGQGTQVTVSS	low polyreactivity

Query sequence follows.
Tell me measured polyreactivity (PSR sort gate) for `QVQLVESGGGLVQAGGSLRLSCAASGRIFDIYTMGWYRQAPGKERELVASITKRGGSTYYADSVKGRFTISRDNAKNTVYLQMNSLKPEDTAVYYCNVAGKQKPYYVTTRLDYWGQGTQVTVSS` please.
high polyreactivity

----------
Test: yeast display, Sf9 membrane polyspecificity reagent, FACS + sequencing; frameworks hold sequencing errors
Metric name: polyreactivity (PSR sort gate)

A selection of reference data follows.
Biosequence	polyreactivity (PSR sort gate)
QVQLVDSGGGLVQAGGSLRLSCSASGYNFIGYAMGWYRQAPGKERELVATITSGGSTNYADSVKGRFTISRDNAKNTVYLQMNSLNPEDTAVYYCAAGRGRYFYSWRYLYAIFDYWGQGTQVTVSS	low polyreactivity
QVQLVESGGGFVKAGGSLRLSCASSGSIFYSYAMGWYRQAPGKEREFVAAISWSASRTYYADSVKGRFTISRDNAKNTVYLQMNSLKPEDTAVYDCAARTYYNSGYYYWGQGTQVTVSS	high polyreactivity
QVHLVESGGGLVQAGGSLRLSCADCGFTLYGNAMGWYRQAPGKVRELVAAITKSGGRTYYADSVKGRFTISRDNAKNTVYLQMNSLKPEDTAVYYCAVRAKSRYDYWGQGTQVTVSS	high polyreactivity
QGQRVESAGGLVQAGGSLRLSCAASGITFARNVMGWSRQAPGQERELVAAISRGDSTYYADSVKGRFTISRDNAKNTVYLQLNSLKPEDTAVYYCAAAVKHVAYHYNYWGQGTQVTVSS	high polyreactivity
QVQLVESGGGLVQAGGSLRLSCAASGPTYWPYAMGWYRQAPGKERELVAAITYSGGGTYYADSVKGRFTISRDNAKNTVYLQMNSLKPEDTAVYYCAKYNYPGRPFDYWGQGTQVTVSS	low polyreactivity
QVQLVESGGGLVQAGGSLRLSCAASGSTFWYYGMGWYRQAPGKEMELVARINWSTGRTYYADSVKGRFTISRDTAKNTVYLQMNSLKPEDTAVYYCNALNPYKGQEAHYDYWGQGTQVTVSS	high polyreactivity
QVQLVESGGGLVQAGGSLRLSCAASGRTFKYYAMGWYRQAPGKERELVAGITSGSSTSYADSVKGRFTISRDNAKITVYLQMNSLKPEDTAVYFCAAGIYQYRYDYWGQGTQVTVSS	high polyreactivity
QVQLVESGGGLVQAGGSLRLSCDASGSTFVGNSMGWYRPAPGKERELVAALTQSGGNTFYADSVKGRFTISRDYAKNTVYLQINSLKPEDTAVYYCAATVSNGVKLDGPARVDLDYWGQGTQVTVSS	low polyreactivity

Tell me measured polyreactivity (PSR sort gate) for `QVQLVESGGGLVQAGGSLRLSCAASGSIFRINAMGWYRQAPGKEREFVAAIRGSGGRTYYADSVKGRFTISRDNAKNTVYLQMNSLKPEDTAVYYCAADFSYRYFQRTSWPFDYWGQGTQVTVSS` please.
high polyreactivity

Tell me measured polyreactivity (PSR sort gate) for `QVQLVESGVGLVQAGGSLRLSCAASGLTFLWYAMGWYRQAPGKERELVAAITSGGRTKYADSVKGRFTISRDNAKNTVYLQMNSLKPEDTAVYYCAAYTQWWGYDYWGQGTQVSVSS` please.
high polyreactivity

Tell me measured polyreactivity (PSR sort gate) for `QDQLVESGGGLVQAGGSLRLSCAATGRIFERNAMGWYRQAPAKERELVARITSGGGTYYADSVKGRFTISRDNAKNTVYLQMNSLKPEDTAVYYCAVQYLYRKYRRYDYWGQGTQVTVSS` please.
high polyreactivity

Value source: the nanobody polyreactivity screen of Harvey et al. (2022)
